system: 817829-284-R-J1-PDC complex spheroid viability; test: Anticancer human tumor 817829-284-R-J1-PDC patient-derived colon adenocarcinoma cell line growth inhibition [POLQ]; settings: second compound 0.316 µM; first compound 0.1 µM; stronger effect = lower value
parameter measured: viability, T/C (%)
Numbers only here, please. The scale is %.

Solved cases (2 shown):
[[record]]
compound = "O=C(c1cc(Cc2n[nH]c(=O)c3ccccc23)ccc1F)N1CCN(C(=O)C2CC2)CC1 + Nc1ccc(C#CCN(C(=O)Cc2ncc(C(F)(F)F)cc2C(F)(F)F)c2ccc(F)cc2)nn1"
unit_spec = "%"
numeric_result = 94

[[record]]
compound = "COc1ccc([C@@H](O)c2cc(-c3ncnc4cc(N5CCOCC5)ccc34)c(F)cc2Cl)nn1 + COC1C(OC(N)=O)C(O)C(Oc2ccc3c(O)c(NC(=O)c4ccc(O)c(CC=C(C)C)c4)c(=O)oc3c2C)OC1(C)C"
unit_spec = "%"
numeric_result = 86


Moving on to the next compound.
The value of viability, T/C recorded for COc1ccc([C@@H](O)c2cc(-c3ncnc4cc(N5CCOCC5)ccc34)c(F)cc2Cl)nn1 + Nc1ccc(C#CCN(C(=O)Cc2ncc(C(F)(F)F)cc2C(F)(F)F)c2ccc(F)cc2)nn1 when tested on 817829-284-R-J1-PDC complex spheroid viability reads 83.2

----------
tested on: 817829-284-R-J1-PDC complex spheroid viability; test: Anticancer human tumor 817829-284-R-J1-PDC cell line growth inhibition [POLQ]; conditions: curve of first compound; second compound 0.316 µM;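 further: spheroids exposed to compounds for 7 days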
pIC50: −log10 of the molar value.
parameter measured: pIC50

[[record]]
compound = "CC(C)n1c(=O)n(C)c2cnc3cc(F)c(-c4ccc(OCCCN5CCCCC5)nc4)cc3c21 + COC1C(OC(N)=O)C(O)C(Oc2ccc3c(O)c(NC(=O)c4ccc(O)c(CC=C(C)C)c4)c(=O)oc3c2C)OC1(C)C"
result = "< 5.00"

[[record]]
compound = "C=CC(=O)N1CCN(c2nc(=O)n(-c3c(C)ccnc3C(C)C)c3nc(-c4c(O)cccc4F)c(F)cc23)C(C)C1 (stereo not drawn) + COC1C(OC(N)=O)C(O)C(Oc2ccc3c(O)c(NC(=O)c4ccc(O)c(CC=C(C)C)c4)c(=O)oc3c2C)OC1(C)C"
result = "< 5.00"


Moving on to the next compound.
Quick note, pIC50 for COc1cccc2c1C(=O)c1c(O)c3c(c(O)c1C2=O)CC(O)(C(=O)CO)CC3OC1CC(N)C(O)C(C)O1 (stereo not drawn) + Cc1cccc(N(C)C(=O)C2C(O)CCN2c2nc(C)cc(C(F)(F)F)c2C#N)c1 landed at > 7.50

----------
tested on: 817829-284-R-J1-PDC complex spheroid viability; assay: Anticancer human tumor 817829-284-R-J1-PDC cell line growth inhibition [POLQ]; details: second compound 0.1 µM; first compound 0.00316 µM; stronger effect = lower value;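 further: spheroids exposed to compounds for 7 days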;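 on viability, T/C: 100% = DMSO vehicle-treated spheroids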
Assign labels as follows, please: YES for viability, T/C below 80%; NO for viability, T/C equal to or exceeding 80%.

[[record]]
compound = "C=CCn1c(=O)c2cnc(Nc3ccc(N4CCN(C)CC4)cc3)nc2n1-c1cccc(C(C)(C)O)n1 + COC1C(OC(N)=O)C(O)C(Oc2ccc3c(O)c(NC(=O)c4ccc(O)c(CC=C(C)C)c4)c(=O)oc3c2C)OC1(C)C"
system_name = "817829-284-R-J1-PDC complex spheroid viability"
assigned_category = "NO"


Query: Please let me know if CCc1c2c(nc3ccc(O)cc13)-c1cc3c(c(=O)n1C2)COC(=O)[C@]3(O)CC + Cc1cccc(N(C)C(=O)C2C(O)CCN2c2nc(C)cc(C(F)(F)F)c2C#N)c1 shows viability, T/C below 80%.
Reply: YES

Query: Please let me know if CC[C@@]1(O)C(=O)OCc2c1cc1n(c2=O)Cc2cc3c(CN(C)C)c(O)ccc3nc2-1 + Nc1ccc(C#CCN(C(=O)Cc2ncc(C(F)(F)F)cc2C(F)(F)F)c2ccc(F)cc2)nn1 shows viability, T/C below 80%.
Reply: NO

Query: Please let me know if CC[C@@]1(O)C(=O)OCc2c1cc1n(c2=O)Cc2cc3c(CN(C)C)c(O)ccc3nc2-1 + Cc1cccc(N(C)C(=O)C2C(O)CCN2c2nc(C)cc(C(F)(F)F)c2C#N)c1 shows viability, T/C below 80%.
Reply: YES

Query: Please let me know if COc1cccc(OCCCN)c1-c1cc(Nc2cnc(C#N)cn2)n[nH]1 + COC1C(OC(N)=O)C(O)C(Oc2ccc3c(O)c(NC(=O)c4ccc(O)c(CC=C(C)C)c4)c(=O)oc3c2C)OC1(C)C shows viability, T/C below 80%.
Reply: YES

Query: Please let me know if Cn1ncnc1[C@H]1c2n[nH]c(=O)c3cc(F)cc(c23)N[C@@H]1c1ccc(F)cc1 + Cc1cccc(N(C)C(=O)C2C(O)CCN2c2nc(C)cc(C(F)(F)F)c2C#N)c1 shows viability, T/C below 80%.
Reply: YES

Query: Please let me know if C=CCn1c(=O)c2cnc(Nc3ccc(N4CCN(C)CC4)cc3)nc2n1-c1cccc(C(C)(C)O)n1 + Nc1ccc(C#CCN(C(=O)Cc2ncc(C(F)(F)F)cc2C(F)(F)F)c2ccc(F)cc2)nn1 shows viability, T/C below 80%.
Reply: NO

Query: Please let me know if CC[C@@]1(O)C(=O)OCc2c1cc1n(c2=O)Cc2cc3c(CN(C)C)c(O)ccc3nc2-1 + COC1C(OC(N)=O)C(O)C(Oc2ccc3c(O)c(NC(=O)c4ccc(O)c(CC=C(C)C)c4)c(=O)oc3c2C)OC1(C)C shows viability, T/C below 80%.
Reply: YES

Query: Please let me know if Cn1ncnc1[C@H]1c2n[nH]c(=O)c3cc(F)cc(c23)N[C@@H]1c1ccc(F)cc1 + Nc1ccc(C#CCN(C(=O)Cc2ncc(C(F)(F)F)cc2C(F)(F)F)c2ccc(F)cc2)nn1 shows viability, T/C below 80%.
Reply: YES
